# study.target: T1, HLA-A*02:01 (human)
# T1 construct: monomers captured on streptavidin plates; also called MHC class I
# assay.summary: UV peptide exchange ELISA
property: peptide exchange yield

Given the entry GLFDGVPTTA , report its measured peptide exchange yield.
50 to 75%

Given the entry QLLHVGVTV , report its measured peptide exchange yield.
50 to 75%

Given the entry ALSEEGLLVYL , report its measured peptide exchange yield.
50 to 75%

Given the entry ALQNYIKEA , report its measured peptide exchange yield.
20 to 50%

Given the entry LLPDLEFYV , report its measured peptide exchange yield.
≥ 75%

Given the entry SLLPLSHLV , report its measured peptide exchange yield.
50 to 75%

Given the entry SLLEVNEESTV , report its measured peptide exchange yield.
50 to 75%

Given the entry MLLEAPGIFL , report its measured peptide exchange yield.
50 to 75%
